B1: EFHC1 (parent)
chain: NIYYYLEDDSMSVIEPVVENSGIL

Variants of: B1
methodNotes: protein stability index of a GFP-peptide fusion (GPS, HEK-293T) (PSI 1-6); higher = more stable;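 note: lentivirally expressed fusions sorted by FACS into six bins by GFP to DsRed ratio, PSI derived from sequencing read proportions per bin multiplied by bin number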
conditionSummary: c terminus: a fixed tail appended
# label = bin(measured protein stability index), where bins are lo: < 2; mid: ≥ 2 and < 3; hi: ≥ 3

Please review the following examples before continuing.
{"columns": ["variantDesignation", "classification"],
 "data": [
  ["Y4I", "lo"],
  ["I2N", "hi"],
  ["Y5T", "mid"],
  ["V13C", "lo"],
  ["Y5S", "hi"],
  ["I2P", "hi"],
  ["L24V", "mid"],
  ["P16H", "mid"]
]}

**Query** Which class does "L24P" fall in?
**Result** mid

**Query** Exercise: read the entry "E15M" and state which class it falls under.
**Result** mid

**Query** Note: place this variant into its band. Item: "V17Y"
**Result** lo

**Query** Which class is correct for the following variant? "S21A"
**Result** lo

**Query** Kindly state the category for this variant: "E19P"
**Result** mid

**Query** State the band of "N20K"
**Result** mid

**Query** GET /class?item= "M11F"
**Result** lo

**Query** GET /class?item= "V18M"
**Result** lo

**Query** # classify by protein stability index band: "Y3W"
**Result** lo

**Query** Which class holds "M11T" ?
**Result** mid

These measurements were taken from the supplement of paper PMC10567573.
